Cited source: PubChem BioAssay

molecular target: Fibroblast growth factor 2 (Homo sapiens); assay: basic fibroblast growth factor binding to printed compounds – biochemical, small-molecule microarray, 635/667 nm fluorescence, primary screen (AID 1133); conditions: FGF2, fluorescence 635/667, higher = more signal
Please go through the items and note down their composite z-score.
Respond using a number only.

Dear colleague, I am looking for the recorded composite z-score of the following compound: CCCN1C(=O)[C@@]2(Cc3ccccc3)N=C(c3ccc(OCCCO)cc3)O[C@H]2c2ccccc21
1.73

Reported composite z-score, compound CN(C)C(=O)[C@@]1(CCC(=O)OC(C)(C)C)COC(c2ccc(OCCCO)cc2)=N1 : ____
-0.357

Need composite z-score, item O=c1c2ccc(Br)cc2nc(-c2ccccc2)n1Cc1cccc(O)c1
0.283

What does the record list as composite z-score for C[C@H]1ON(c2ccccc2)[C@@H](c2ccccc2)[C@@H]1C(=O)N1C(=O)OC[C@@H]1c1ccccc1 ?
0.986

Need composite z-score, item COC(=O)[C@@]1(Cc2ccccc2)[C@H]2c3cc(C(=O)N(C)C)n(Cc4ccccn4)c3C[C@H]2CN1C(=O)c1ccccc1
-0.389

---

test: blood-stage malaria parasite viability loss – strain 3D7, DAPI fluorescence, 100 nL, primary screen (AID 1184);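 note: parasites grown inside human red blood cells in medium with human serum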; conditions: P. falciparum 3D7 growth, 3 d, higher = more signal
measuredProperty: z-score
API doc: respond with a numeric literal and nothing else, no unit.

Quick one: z-score for CC(C)(C)N1CC=CC23O[C@@H]4C=CCCOC(=O)C4[C@H]2C(=O)N(CCCO)[C@@H]3C1=O (some centres undefined) ?
-1.75

Entry CN1C(=O)C2C=CC(C(O)C3CCCCC3)N(N(c3ccccc3)c3ccccc3)C2C1=O (centres undefined) has what z-score?
0.721

Which measured z-score value corresponds to Cc1ccc(S[C@]2(C(=O)O)CC(=O)N(C3CCCCC3)[C@@H]2c2ccc(CO)cc2)cc1 ?
0.756

Can you look up the measured z-score of CCN(CC)c1ccc(N2CC=CC34O[C@@H]5/C=C\CCCOC(=O)C5[C@H]3C(=O)N(CCCCCO)[C@@H]4C2=O)cc1 (some centres undefined) for me?
1.98

---

molecular target: Fibroblast growth factor 2 (Homo sapiens) (UniProt P09038); test: basic fibroblast growth factor binding to printed compounds – biochemical, small-molecule microarray, 635/667 nm fluorescence, primary screen (AID 1133); conditions: FGF2, fluorescence 635/667, higher = more signal
Sequence (P09038 whole entry, looked up): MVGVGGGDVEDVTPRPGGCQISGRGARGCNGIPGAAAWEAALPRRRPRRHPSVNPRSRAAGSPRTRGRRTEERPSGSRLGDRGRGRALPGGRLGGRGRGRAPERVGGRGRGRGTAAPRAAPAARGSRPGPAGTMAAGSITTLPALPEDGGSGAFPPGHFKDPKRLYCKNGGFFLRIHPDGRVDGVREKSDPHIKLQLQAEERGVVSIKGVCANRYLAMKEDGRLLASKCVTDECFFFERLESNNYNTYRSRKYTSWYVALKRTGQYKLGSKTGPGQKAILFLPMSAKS
# if value of composite z-score reaches 0.8, tag Met; if it stays below, tag Not met

For this compound, is measured composite z-score 0.8 or higher? CCCCC=C[C@@H](NC(=O)CCc1ccccc1)c1ccccc1
Not met

Check this compound for composite z-score at or above 0.8: C=C[C@@H](O)[C@H]1CC(c2ccccc2)=NO1
Not met

Does [N-]=[N+]=Nc1ccccc1[C@@H]1OC(c2ccc(OCCCO)cc2)=N[C@]1(CCS(=O)(=O)c1ccccc1)C(=O)NCc1ccccc1 have a reported composite z-score of at least 0.8?
Met

composite z-score >= 0.8 for COCCCNC(=O)[C@@]1(C)c2ccccc2C(=O)N(c2ccc(C)cn2)[C@H]1c1ccc(CO)cc1 ?
Not met

Please check the record CC(C)(C)OC(=O)CC[C@@]1(C(=O)N2CCCCC2)N=C(c2ccc(OCCCO)cc2)O[C@@H]1c1ccccc1CN=[N+]=[N-] and state if its composite z-score is at or above 0.8.
Not met

Identify whether the reported composite z-score of the following compound is 0.8 or greater: COCCOC(=O)N1C(=O)[C@@]2(c3cc(C#CCC(C(=O)OC)C(=O)OC)ccc31)[C@H](c1ccc(OCCO)cc1)N1[C@H](c3ccccc3)[C@H](c3ccccc3)OC(=O)[C@H]1[C@@H]2C(N)=O
Met

---

Field: z-score. Provide a value for each of the compounds that follow.
test: compound effects on hepatocellular carcinoma cell viability – HepG2, calcein-AM fluorescence, 48 h, basal, profiling panel (AID 1164); settings: higher = more signal; note: test concentration not given here
Lab note: jot down the number only; don't add units.

If you can, please state the reported z-score value of NC(=O)NCC#Cc1ccc2c(c1)[C@]1(C(=O)N2)[C@H](c2ccc(OCCO)cc2)N2[C@H](c3ccccc3)[C@H](c3ccccc3)OC(=O)[C@H]2[C@@H]1C(=O)N1CCCCCCC1 .
-0.455

Please look up its z-score: COCCOC(=O)N1C(=O)[C@@]2(c3cc(C#Cc4ccc(OC)cc4)ccc31)[C@H](C(=O)N1CCc3cc(OC)c(OC)cc3C1)[C@H]1C(=O)O[C@H](c3ccccc3)[C@H](c3ccccc3)N1[C@@H]2c1ccc(OCCO)cc1
-1.13

Consider the compound shown here: COc1ccc([Si](C)(C)[C@@H]2[C@@H](CCO)O[C@]3(C(=O)N(Cc4cccc(N5C(=O)COc6ccccc65)c4)c4ccccc43)[C@H]2C)cc1 What is its recorded z-score?
-4.17

Param item = COC(=O)[C@]1(Cc2ccccc2CN=[N+]=[N-])N=C(c2ccc(OCCCO)cc2)O[C@@H]1c1ccccc1 ; retrieve measured z-score.
-4.37

z-score for C=CCOC(=O)[C@@H]1[C@H]2C(=O)O[C@H](c3ccccc3)[C@H](c3ccccc3)N2[C@H](c2ccc(OCCOC(=O)[C@@H]3C[C@@H]4C(=O)N5CCC[C@H]5C(=O)N4[C@@H]3c3cccc(OCCO)c3)cc2)[C@@]12C(=O)Nc1ccc(I)cc12 ?
-1.27

Quick one: z-score of CN1C(=O)C2C=CC(C(O)c3ccc(F)cc3)N(N3CCCCC3)C2C1=O (stereo not drawn) ?
-0.572

Consider the compound C=C(COC)/C(=C/C[C@@H](OC(=O)c1ccncc1)c1cccc(OCCO)c1)c1cc(C(=O)OC)ccc1OC and give its measured z-score.
-1.45

Returns the measured z-score for the input compound. Input: Cc1ccc(C(C)CC(O)C2C=CC3C(=O)N(Cc4ccccc4)C(=O)C3N2n2cnnc2)o1 (stereo not drawn)
-0.705

So what does the record say about z-score for CCOC(=O)C[C@H]1[C@H](OC(=O)c2ccc(C(=O)c3ccccc3)cc2)[C@@H](NC(=O)C2CCCCC2)c2cc(OCCCO)ccc2N1C(=O)Cc1ccc(OC)cc1 ?
0.918

So what does the record say about z-score for CCOc1cc(C(O)C2C=CC3C(=O)NC(=O)C3N2Nc2ccccn2)ccc1O (stereo not drawn) ?
-0.506

What measured z-score goes with CC(C)(C)OC(=O)CC[C@]1(C(=O)N2CCCCC2)N=C(c2ccc(OCCCO)cc2)O[C@H]1c1ccccc1CN=[N+]=[N-] ?
1.58

Please look up its z-score: C=CC[C@@]1(C(=O)NCCN2CCOCC2)N=C(c2ccc(OCCCO)cc2)O[C@@H]1c1ccccc1
-0.253

What does the data say about its z-score? Entry: COC(=O)c1ccc(OC)c(/C=C\CC(CCc2ccccc2)OC(=O)c2ccncc2)c1 (stereo not drawn)
-0.457

Returns the measured z-score for the input compound. Input: COC(=O)[C@@]1(Cc2ccc(F)cc2)[C@H]2c3cc(C(=O)N(C)C)n(Cc4ccc(C)c(F)c4F)c3C[C@H]2CN1C(=O)c1ccccc1
1.03

Reported z-score, compound O=[N+]([O-])c1ccc(C[n+]2ccc(-c3ccc(CO)cc3)cc2)o1 : ____
-1.19

Value lookup for z-score; key = CCN(CC)c1ccc(N2CC=CC34O[C@@H]5/C=C\CCCOC(=O)C5[C@H]3C(=O)N(CCCCCO)[C@@H]4C2=O)cc1 (stereo partly drawn)
0.481

What value of z-score has been recorded for this entry: C[C@]12C(=O)N(CCCCCO)[C@@H]3C(=O)N(c4ccc(Cl)cc4)CC=CC31O[C@@H]1/C=C\CCCOC(=O)C12 (stereo partly drawn)
0.209

Suppose we examine the compound COCCCNC(=O)[C@@]1(Cc2ccccc2N=[N+]=[N-])N=C(c2ccc(OCCCO)cc2)O[C@H]1c1ccccc1CN=[N+]=[N-] ; what z-score value has been reported?
-0.456

z-score for COCCCNC(=O)[C@@H]1c2ccccc2C(=O)N(c2ccc(C)cn2)[C@H]1c1ccc(CO)cc1 ?
-0.357

Would you mind telling me what z-score value was observed for COCCOC(=O)N1C(=O)[C@@]2(c3cc(C#CCC(C(=O)OC)C(=O)OC)ccc31)[C@H](c1ccc(OCCO)cc1)N1[C@H](c3ccccc3)[C@H](c3ccccc3)OC(=O)[C@H]1[C@@H]2C(N)=O ?
0.322

// returns reported z-score for input C=C[C@@H](O)[C@H]1CC(c2ccccc2)=NO1
-0.34

Which z-score reading was recorded for the compound COC(=O)[C@@]1(Cc2ccccc2)[C@H]2c3cc(C(=O)N4CCCC4)n(Cc4ccc(OC(F)(F)F)cc4)c3C[C@H]2CN1C(=O)c1ccccc1 ?
-1.56

Which z-score reading was recorded for the compound CCN(CC)c1ccc(N2CC=CC34O[C@@H]5/C=C\CCCOC(=O)C5[C@H]3C(=O)N(CCCCCCO)[C@@H]4C2=O)cc1 (stereo partly drawn) ?
1.24

Item COC(=O)C(CC#Cc1ccc2c(c1)[C@]1(C(=O)N2)[C@H](c2ccc(O)cc2)N2[C@H](c3ccccc3)[C@H](c3ccccc3)OC(=O)[C@H]2[C@@H]1C(=O)O)C(=O)OC has what recorded z-score?
0.0171

GET /values?readout=z-score&item= CC(C)C(CO)N1C(=O)[C@@H]2[C@H]3C(=O)OCC=C[C@H]3OC23C=CCN(Cn2nnc4ccccc42)C(=O)[C@@H]13 (stereo partly drawn)
-0.751

Would you mind telling me what z-score value was observed for CN1C(=O)C2C=CC(C(O)C3CCCCC3)N(N(c3ccccc3)c3ccccc3)C2C1=O (stereo not drawn) ?
0.149

Using the record for Cc1ccccc1C(O)C1C=CC2C(=O)N(C)C(=O)C2N1Nc1ccc([N+](=O)[O-])cc1[N+](=O)[O-] (stereo not drawn) , report its z-score.
0.839

Tell me the measured z-score of [N-]=[N+]=Nc1ccccc1[C@H]1OC(c2ccc(OCCCO)cc2)=N[C@@]1(Cc1ccccc1)C(=O)NCc1ccccc1 , please.
-1.07
